- experimental.details: Blood and brain concentrations in satellite animals of the MEST study
- Type: in vivo, rat
- condition.notes: rat, brain, sc, 3 mg/kg, satellite rats; ENK6 veh + ENa13 3 mg/kg s.c.; n = 2; read-out: Brain concentration
readout.name: concentration at 30 min (ng/g)
Report the figure in ng/g without appending any unit label.

Dear colleague, I am looking for the recorded concentration at 30 min of the following molecule: CN1CC[C@]2(CC[C@H](c3ccc(OCc4ccccc4F)cc3)N2)C1=O.Cl [ENa13, hydrochloride]
1820

---

- experimental.details: Blood and brain concentrations in satellite animals of the MEST study
- Type: in vivo, rat
- condition.notes: rat, blood, po, 1 mg/kg, satellite rats; ENK6 veh + ENa7 1 mg/kg p.o. (Table 3); n = 1; read-out: Blood concentration
- Procedure: Satellite animals (n=3/group) received the same drugs or combinations of drugs as the test groups, and were culled at the appropriate time after dosing. Blood and brain samples were taken for analysis of the drug concentrations in these compartments. All doses were calculated as base. ENa9 and ENa13 were dosed via the subcutaneous (s.c.) route at 1 ml/kg in a 2% v/v DMSO/saline vehicle 30 minutes prior to test. […]
readout.name: concentration at 60 min (ng/mL)
Report the figure in ng/mL without appending any unit label.

Dear colleague, I am looking for the recorded concentration at 60 min of the following compound: Nc1nnc(-c2cccc(Cl)c2Cl)c(N)n1 [ENa7, reference compound]
311

---

- experimental.details: Blood and brain concentrations in satellite animals of the MEST study
- Type: in vivo, rat
- condition.notes: rat, brain, po, 1 mg/kg, satellite rats; ENK6 veh + ENa7 1 mg/kg p.o. (Table 4); n = 1; read-out: Brain concentration
readout.name: concentration at 60 min (ng/g)
Report the figure in ng/g without appending any unit label.

Dear colleague, I am looking for the recorded concentration at 60 min of the following compound: Nc1nnc(-c2cccc(Cl)c2Cl)c(N)n1 [ENa7, reference compound]
588

---

- experimental.details: Blood and brain concentrations in satellite animals of the MEST study
- Type: in vivo, rat
- condition.notes: rat, brain, sc, 10 mg/kg, satellite rats; ENK6 10 mg/kg s.c. + ENa7 veh; n = 2-3; read-out: Brain concentration
readout.name: concentration at 15 min
Please format your answer as a value with the unit trailing.

Dear colleague, I am looking for the recorded concentration at 15 min of the following molecule: COc1ccc(-n2nnnc2C(F)(F)F)cc1CN[C@H]1CCCN[C@H]1c1ccccc1.Cl.Cl [ENK6, dihydrochloride]
1420 ng/g

---

- experimental.details: Blood and brain concentrations in satellite animals of the MEST study
- Assay type: in vivo, rat
- condition.notes: rat, brain, po, 3 mg/kg, satellite rats; ENK6 veh + ENa7 3 mg/kg p.o. (Table 3); n = 1; read-out: Brain concentration
readout.name: concentration at 60 min (ng/g)
Report the figure in ng/g without appending any unit label.

Dear colleague, I am looking for the recorded concentration at 60 min of the following compound: Nc1nnc(-c2cccc(Cl)c2Cl)c(N)n1 [ENa7, reference compound]
2830

---

- experimental.details: Blood and brain concentrations in satellite animals of the MEST study
- Assay type: in vivo, rat
- condition.notes: rat, blood, po, 3 mg/kg, satellite rats; ENK6 veh + ENa7 3 mg/kg p.o. (Table 4); n = 1; read-out: Blood concentration
readout.name: concentration at 60 min (ng/mL)
Report the figure in ng/mL without appending any unit label.

Dear colleague, I am looking for the recorded concentration at 60 min of the following molecule: Nc1nnc(-c2cccc(Cl)c2Cl)c(N)n1 [ENa7, reference compound]
1350

Each recorded value in this set is attributed to patent US20100105688A1.
